- systemUnderTest: T1, PSMA Fab
- T1 construct: also called Anti-PSMA Fab; 006 PSMA Fab
- assayRemarks: clonal phage ELISA; biotinylated PSMA Fab on neutravidin plate, blocking buffer alone; anti-M13 HRP detection;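 further: crude clonal phage supernatants added without washing to wells pretreated with blocking buffer with or without PSMA antigen, short incubation, then washed before detecting bound phage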
Catalogue of Phage binding ELISA signal, Anti-PSMA Fab readings, one per entry.
# output: bare number, no unit

Some solved entries appear below for comparison.
NSSLCIPSWMCSGF [Phage-3752] : 1.37
QSVMCRPAWMCEGF [Phage-3748] : 1.38
TIMYCKPTWMCTGF [Phage-3757] : 1.37
WIKECVPDWMCSGF [Phage-3745] : 1.38
EAKVCKPAWMCDGL [Phage-3754] : 1.37
FELYCVPAWMCSGF [Phage-3753] : 1.37

Now consider the entry below.
Input: Please report the recorded Phage binding ELISA signal, Anti-PSMA Fab for YHKECIPPWMCMGF [Phage-3756] .
Output: 1.37
